Biological target: T1, human GIP receptor (human, UniProt P48546 22-466)
T1 sequence (looked up): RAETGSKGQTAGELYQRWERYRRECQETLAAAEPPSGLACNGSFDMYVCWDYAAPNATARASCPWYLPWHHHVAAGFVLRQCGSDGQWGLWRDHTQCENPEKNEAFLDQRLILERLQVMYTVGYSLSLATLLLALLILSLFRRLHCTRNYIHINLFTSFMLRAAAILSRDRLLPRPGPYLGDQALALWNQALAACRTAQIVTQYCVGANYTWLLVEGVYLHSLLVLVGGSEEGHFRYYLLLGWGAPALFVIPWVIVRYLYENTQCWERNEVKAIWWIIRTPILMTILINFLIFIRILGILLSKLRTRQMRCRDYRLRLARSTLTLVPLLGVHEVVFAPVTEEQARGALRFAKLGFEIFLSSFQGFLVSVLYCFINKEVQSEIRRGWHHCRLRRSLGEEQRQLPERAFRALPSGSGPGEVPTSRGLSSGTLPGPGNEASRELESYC
Assay: cell-based or functional assay
Bridges are numbered along the chain shown (N, C = ends). Where no end group is shown, it is not given here. [ ]: non-standard residue; d: D form. The star is where a group is joined. Acetyl(2-(4-imidazolyl)) = O=C(Cc1c[nH]cn1)*; Aib = CC(C)(N)C(=O)O
metric_name: in vitro Activity Compared to Native Peptide (%), vs GIP
Give bare numbers, in %.

For orientation, consider the following solved cases.
>  <binder>
H[Aib]EGTFTSDYSIAMDEIHQKDFVDWLLAEC (bridge 16-20; not fully specified (C-terminus)) [triple agonist of SEQ ID NO: 54]

>  <result_value>
0.1

$$$$
>  <binder>
[Acetyl(2-(4-imidazolyl))][Aib]QGTFTSDYSIAMDEIHQKDFVNWLLAQC (bridge 16-20; not fully specified (C-terminus)) [triple agonist of SEQ ID NO: 85]

>  <result_value>
0.3

$$$$
>  <binder>
[Acetyl(2-(4-imidazolyl))][Aib]EGTFTSDYSIAMDEIHQKDFVNWLLAQC (bridge 16-20; not fully specified (C-terminus)) [triple agonist of SEQ ID NO: 83]

>  <result_value>
0.4

$$$$

Provide each entry's in vitro Activity Compared to Native Peptide (%), vs GIP from the list below.
1. Y[Aib]QGTFTSDYSKALDEKAAKDFVNWLLDHHPSSGQPPPSC (bridge 16-20; not fully specified (C-terminus)) [triple agonist of SEQ ID NO: 99]
2. H[Aib]QGTFTSDYSKYLDEKRAKEFVQWLLDHHPSSGQPPPSC-NH2 (bridge 16-20) [triple agonist of SEQ ID NO: 50]
3. [Acetyl(2-(4-imidazolyl))][Aib]QGTFTSDYSKYLDEKRQKEFVNWLLAQC (bridge 16-20; not fully specified (C-terminus)) [triple agonist of SEQ ID NO: 86]

Response:
57.7
2.7
0.2
